test system: NCI-H522 lung; test: NCI tumour cell line growth inhibition, 48 h
Assign y to entries whose TGI meets or exceeds 8 µM; assign n to the rest.

Reference set, count: 6
CCN1CCC(O)(c2ccccc2)C(C(=O)c2ccccc2)C1 (stereo not given); n
O=C1Nc2ccccc2/C1=C\c1c(Cl)[nH]c2ccccc12; n
NC(=O)OCc1c(O)c2c(c(O)c1COC(N)=O)C(=O)C=CC2=O; y
COC(=O)[C@H]1[C@H](OC(=O)[C@@H](OC)c2ccccc2)ON2CC[C@@H](OC(=O)c3ccccc3)[C@H]12; n
O=C(Nc1ccc(-n2cc(-c3ccncc3)c(-c3ccc(O)c(Cl)c3)n2)cc1)c1ccc(Cl)c(Cl)c1; y
COc1ccc(Nc2nc3c(N)cc(C(F)(F)F)cc3nc2-c2ccccc2)cc1; y

Task item: Does C=C1CCC2C3(C)COC(c4cccc(Cl)c4)OC3CCC2(C)C1/C=C/C1=CCOC1=O (stereo not given) have a reported TGI of at least 8 µM?
Reply: y

Task item: Assess whether reported TGI for "COc1ccc([N+](=O)[O-])cc1[I+]c1cc([N+](=O)[O-])ccc1OC" sits at 8 µM or higher.
Reply: y

Task item: Dear colleague, could you confirm whether "C/C(=N\NC(=S)Nc1ccccc1)c1ccccn1" has TGI at or above 8 µM?
Reply: n

Task item: Confirm if TGI reported for the molecule "COc1ccc2[nH]c3c(c2c1)CCc1ccccc1-3" is 8 µM or above.
Reply: y

* * *

tested on: MCF7 breast; assay: NCI tumour cell line growth inhibition, 48 h; in the data active means GI50 below about 0.43 µM; inactive means the rest
A correct response names exactly one class from active, inactive

CC[C@]12C=CCN3CC[C@]4(C(=C(C(=O)OC)C1)Nc1ccccc14)[C@@H]32; inactive
COc1cc2nc(-c3ccc(Cl)cc3)cc(OCCCN3CCC(O)CC3)c2cc1OC; inactive
COc1cc2c(cc1OCCCN1CCN(CCCOc3cc4c(cc3OC)C(=O)C3CCC[C@H]3C=N4)CC1)N=C[C@@H]1CCCC1C2=O (some centres undefined); inactive

Task item: Call for entry C=C1CCC2C3(C)COC(c4cccc(Cl)c4)OC3CCC2(C)C1/C=C/C1=CCOC1=O (centres undefined) :
Reply: inactive

Task item: Dear colleague, could you share the recorded outcome for "O=C1/C(=C\c2ccccc2)CN(C(=O)c2ccccc2F)C/C1=C\c1ccccc1" when you have a moment?
Reply: inactive

Task item: Please share the test call associated with "NCCCNCCCNc1nc2ccccc2c2[nH]c3ccccc3c12" .
Reply: active

Task item: Query: recorded result category for "COc1cc(-c2cn(-c3ccc(Cl)cc3)c(=O)n2-c2ccccc2)cc(OC)c1OC" in this test
Reply: inactive

Task item: Could you kindly confirm the outcome this assay logged for "Cn1cc(-c2ccc3c(c2)ncn3-c2ccc(CC(=O)Nc3cc(C(C)(C)C)on3)cc2)cn1" ?
Reply: inactive

Task item: Answer briefly: the call reported for "C#CCSc1nnnn1-c1ccc(Br)c(C)c1" in this assay.
Reply: inactive

* * *

tested on: MALME-3M melanoma; assay: NCI tumour cell line growth inhibition, 48 h
reported property: TGI (µM)
Note: unit µM is implicit; provide only the numeric part.

Some molecules with known TGI results, for comparison:
CCN1CCC(O)(c2ccccc2)C(C(=O)c2ccccc2)C1 (stereo not given); 38.4
CCOC(=O)C1=C(O)CSC1=Nc1ccc(N=C2SCC(O)=C2C(=O)OCC)cc1; 40.4
COc1ccc(C2=NN(c3ccc(S(N)(=O)=O)cc3)C(c3ccc(Cl)cc3)C2)c(O)c1 (stereo not given); 16.7

Shifting focus to the molecule that follows.
Task item: Look up TGI for this molecule: "O=C(/C=C/c1cccnc1)/C=C/c1cccnc1"
Reply: 5.31

* * *

tested on: KM12 colon; assay: NCI tumour cell line growth inhibition, 48 h
# TGI per record follows

Task item: Please report the recorded TGI for "CCN(CC)c1ccc(/C=C/C2=[N+](C)c3ccccc3C2(C)C)cc1" .
Reply: 1.83 µM

Task item: Dear colleague, I am looking for the recorded TGI of the following compound: "CC(C)(C)OC(=O)N1CCC[C@H]1CSC[C@@H]1CCCN1C(=O)OC(C)(C)C"
Reply: 48.2 µM

* * *

In this section, each of the compounds is paired with its reported TGI.
test system: MOLT-4 leukemia; experiment: NCI tumour cell line growth inhibition, 48 h

NC(=S)NS(=O)(=O)c1ccc(F)cc1; > 100 µM
Nc1nc(Cl)c(N)c(NCC2(CO)CC(O)C2)n1 (stereo not given); > 100 µM
c1ccc(NC2(c3nnnn3C3CCCCC3)CCNCC2)cc1; 43.5 µM
CC(C)(C)OC(=O)N1CCC[C@H]1CSC[C@@H]1CCCN1C(=O)OC(C)(C)C; 37.5 µM
COc1cc(/C=C2\N=C(c3ccccc3)N(/N=C/c3cc4cc(C)ccc4nc3Cl)C2=O)ccc1O; 47.8 µM
COc1ccc(C(=O)Nc2ccccc2)cc1[N+](=O)[O-]; > 100 µM
CCCN=C1S/C(=C/c2ccc(OC)c(OC)c2)C(=O)N1c1ccccc1; > 100 µM
O=C(N/N=C1\CCc2ccccc21)N/N=C1\CCc2ccccc21; > 100 µM

Task item: Give its TGI value. Item: COc1ccc2c(c1)OCC1Cc3cccc(OC)c3OC21 (stereo not given)
Reply: 80.7 µM

Task item: I'd like to know its TGI. The compound in question is CC(C)c1cc(C(C)C)c(P2(=O)CC3C(Cl)(Cl)C3(C)C2)c(C(C)C)c1 (stereo not given)
Reply: > 23.1 µM

Task item: # query: TGI of entry Nc1ncn([C@@H]2C=C(CO)C(O)C2O)c(=O)n1 (stereo not given in full)
Reply: > 100 µM

Task item: I am curious: what TGI value has been reported for COC(=O)Oc1nn(C(=O)OC)c(=O)c2ccccc12 (tested in a mixture with another compound) ?
Reply: > 100 µM

Task item: Given the entry C=C1CCC2C3(C)COC(c4cccc(Cl)c4)OC3CCC2(C)C1/C=C/C1=CCOC1=O (stereo not given) , report its measured TGI.
Reply: > 100 µM

Task item: Need TGI of "CCOC(=O)/C(C#N)=N\Nc1ccc(-n2c(C)nc3ccc(Br)cc3c2=O)cc1" , thanks.
Reply: > 100 µM

* * *

tested on: SNB-19 CNS; experiment: NCI tumour cell line growth inhibition, 48 h; in the data active = GI50 below about 0.43 µM; inactive = the rest
Choose the fitting class; nothing outside active, inactive is accepted.

A selection of reference data follows.
Cn1cc(-c2nonc2-c2cn(C)c3ccc(Br)cc23)c2ccccc21; inactive
CCN1C(=O)N(CC)C2C1NN=c1s/c(=C\c3ccc([N+](=O)[O-])cc3)c(=O)n12 (stereo unspecified); inactive
O=C(O)Cc1ccccc1; inactive
O=C1/C(=C\c2ccccc2)CN(C(=O)c2ccccc2F)C/C1=C\c1ccccc1; inactive
CC(=O)[CH-]C(=O)c1ccccc1.CC(=O)[CH-]C(=O)c1ccccc1.[O-]Cc1cccs1.[O-]Cc1cccs1.[Ti+4]; inactive

Now take the following compound into account.
Task item: I'd appreciate the recorded outcome for "NCCCNCCCNc1nc2ccccc2c2[nH]c3ccccc3c12" from this test.
Reply: active

* * *

system: RXF 393 renal; assay: NCI tumour cell line growth inhibition, 48 h
reported property: TGI

Fc1cccc(C=NC23CC4CC(CC(C4)C2)C3)c1; > 100 µM
Nc1nc(Cl)cc(NCC2(CO)CC(O)C2)n1 (stereo not drawn); > 100 µM
CNS(=O)(=O)NN(C)S(=O)(=O)c1ccc(C)cc1; > 100 µM
O=C(CN1c2ccccc2Sc2ccccc21)n1cnc2ccccc21; > 100 µM
O=C(O)c1ccccc1/C=C1\Cc2ccc3c(c2C1=O)CCCC3; 76.3 µM

Task item: TGI lookup needed for Cc1ccc(S(=O)(=O)OC(C=O)C(O)C(O)COC(c2ccccc2)(c2ccccc2)c2ccccc2)cc1 (stereo not drawn) , thanks.
Reply: 30.3 µM

Task item: Reported TGI, molecule N/C(=N/O)c1cn(C2OC(CO)C(O)C2O)c2ncnc(NO)c12 (stereo not drawn) : ____
Reply: 14.7 µM

Task item: Look up TGI for this molecule: "O=C1c2cc([N+](=O)[O-])cnc2S(=O)(=O)N1c1ccc(Oc2ccccc2)cc1"
Reply: > 100 µM

Task item: # get_value(readout='TGI', item= COc1cc(-c2c(C(C)=O)c(-c3ccccc3)n(C3OC(COC(C)=O)C(OC(C)=O)C(OC(C)=O)C3OC(C)=O)c(=S)c2C#N)ccc1O (stereo not drawn) )
Reply: > 100 µM

Task item: // TGI lookup, key: "C[CH2][Sn]([CH2]C)([O]C(=O)c1cc(OC)c(OC)c(OC)c1)[O][Sn]([CH2]C)([CH2]C)[O]C(=O)c1cc(OC)c(OC)c(OC)c1"
Reply: 27.9 µM

Task item: Data request, read-out TGI, for CC(=O)N(CCc1ccccc1)C(C)(C#N)c1ccccc1 (stereo not drawn)
Reply: > 100 µM

Task item: Suppose we examine the molecule CCN1N=CSC12C(=O)N(c1ccccc1)C(=O)N2c1ccccc1 (stereo not drawn) ; what TGI value has been reported?
Reply: > 100 µM

Task item: Data request, read-out TGI, for C=C(CNCCc1ccc(O)cc1)[C@@H]1CC[C@]2(CO)CC[C@]3(C)[C@H](CC[C@@H]4[C@@]5(C)CCC(NCCO)C(C)(C)[C@@H]5CC[C@]43C)[C@@H]12 (stereo partly drawn)
Reply: 2.63 µM

Task item: What does the record list as TGI for COc1ccc(-c2c(C(=O)Nc3ccccc3)c(-c3ccccc3)n(C3OC(CO)C(O)C(O)C3O)c(=S)c2C#N)cc1 (stereo not drawn) ?
Reply: > 100 µM

Task item: Which TGI is reported for this molecule? COc1ccc(C(NCCNC(c2ccc(OC)c(OC)c2)c2cc3c(cc2O)OCO3)c2cc3c(cc2O)OCO3)cc1OC (stereo not drawn)
Reply: 4.85 µM
